# ASSAY PROTOCOL: Stability of cannabinoid and Vitamin E components of Beverage 1 (AB White) stored at 8° C. and 21-25° C., LCMSMS over 570 days
# Format: physicochemical
# TEST SETTINGS: beverage stored at 21-25° C., day 180
Reported Stability in AB White, 21-25° C. (content by LCMSMS) values for the following molecules.
ENDPOINT NAME: Stability in AB White, 21-25° C. (content by LCMSMS) (µg/mL)

[
  {
    "MOLECULE": "CCCCCc1cc2c(c(O)c1C(=O)O)[C@@H]1C=C(C)CC[C@H]1C(C)(C)O2 [D9 THCA, delta-9-tetrahydrocannabinolic acid]",
    "OUTPUT UNIT": "µg/mL",
    "RECORDED MEASUREMENT": 0.945
  },
  {
    "MOLECULE": "CCCCCc1cc(O)c2c(c1)OC(C)(C)c1ccc(C)cc1-2",
    "OUTPUT UNIT": "µg/mL",
    "RECORDED MEASUREMENT": 2.68
  },
  {
    "MOLECULE": "CCCc1cc(O)c2c(c1)OC(C)(C)[C@@H]1CCC(C)=C[C@@H]21 [THCV, delta-9-tetrahydrocannabivarin]",
    "OUTPUT UNIT": "µg/mL",
    "RECORDED MEASUREMENT": 3.52
  },
  {
    "MOLECULE": "CCCCCc1cc(O)c2c(c1)OC(C)(CCC=C(C)C)C=C2 (centres unmarked)",
    "OUTPUT UNIT": "µg/mL",
    "RECORDED MEASUREMENT": 0.315
  },
  {
    "MOLECULE": "CCCCCc1cc(O)c2c(c1)OC(C)(C)[C@@H]1CCC(C)=C[C@@H]21 [D9 THC, delta-9-tetrahydrocannabinol, reference compound]",
    "OUTPUT UNIT": "µg/mL",
    "RECORDED MEASUREMENT": 11.9
  }
]

* * *

# ASSAY PROTOCOL: Stability of cannabinoid and Vitamin E components of Beverage 2 (AB Red) stored at 8° C. and 21-25° C., LCMSMS over 570 days
# TEST SETTINGS: 8° C., 24 days
Reported Stability of Cannabinoids in AB Red values for the following compounds.

[
  {
    "COMPOUND": "CCCCCc1cc(O)c2c(c1)OC(C)(C)[C@@H]1CCC(C)=C[C@@H]21 [D9 THC, delta-9-tetrahydrocannabinol, reference compound]",
    "Stability of Cannabinoids in AB Red": "12.9 µg/mL"
  },
  {
    "COMPOUND": "CCCc1cc(O)c2c(c1)OC(C)(C)[C@@H]1CCC(C)=C[C@@H]21 [THCV, delta-9-tetrahydrocannabivarin]",
    "Stability of Cannabinoids in AB Red": "3.15 µg/mL"
  },
  {
    "COMPOUND": "CCCCCc1cc(O)c(C/C=C(\\C)CCC=C(C)C)c(O)c1 [CBG, cannabigerol]",
    "Stability of Cannabinoids in AB Red": "4.65 µg/mL"
  },
  {
    "COMPOUND": "C=C(C)[C@@H]1CCC(C)=C[C@H]1c1c(O)cc(CCCCC)c(C(=O)O)c1O [CBDA, cannabidiolic acid]",
    "Stability of Cannabinoids in AB Red": "1.70 µg/mL"
  },
  {
    "COMPOUND": "CCCCCc1cc2c(c(O)c1C(=O)O)[C@@H]1C=C(C)CC[C@H]1C(C)(C)O2 [D9 THCA, delta-9-tetrahydrocannabinolic acid]",
    "Stability of Cannabinoids in AB Red": "1.33 µg/mL"
  },
  {
    "COMPOUND": "CCCCCc1cc(O)c2c(c1)OC(C)(CCC=C(C)C)C=C2 (stereo not drawn) [CBC, cannabichromene]",
    "Stability of Cannabinoids in AB Red": "0.291 µg/mL"
  },
  {
    "COMPOUND": "CCCCCc1cc(O)c2c(c1)OC(C)(C)c1ccc(C)cc1-2 [CBN, cannabinol]",
    "Stability of Cannabinoids in AB Red": "2.76 µg/mL"
  },
  {
    "COMPOUND": "CCCCCc1cc(O)c2c(c1)OC1(C)CCC3C1C2C3(C)C (stereo not drawn) [CBL, cannabicyclol]",
    "Stability of Cannabinoids in AB Red": "0.508 µg/mL"
  },
  {
    "COMPOUND": "C=C(C)[C@@H]1CCC(C)=C[C@H]1c1c(O)cc(CCC)cc1O [CBDV, cannabidivarin]",
    "Stability of Cannabinoids in AB Red": "0.197 µg/mL"
  }
]

* * *

# ASSAY PROTOCOL: Stability of cannabinoid and Vitamin E components of Beverage 2 (AB Red) stored at 8° C. and 21-25° C., LCMSMS over 570 days
# TEST SETTINGS: 21-25° C., 450 days
Threshold check on Stability of Cannabinoids in AB Red: at or above 1 µg/mL gives met, strictly below gives not met.

[
  {
    "COMPOUND": "CCCCCc1cc(O)c2c(c1)OC(C)(CCC=C(C)C)C=C2 (stereo not drawn) [CBC, cannabichromene]",
    "ANSWER LABEL": "not met"
  },
  {
    "COMPOUND": "CCCCCc1cc(O)c2c(c1)OC(C)(C)c1ccc(C)cc1-2 [CBN, cannabinol]",
    "ANSWER LABEL": "met"
  },
  {
    "COMPOUND": "CCCCCc1cc(O)c(C/C=C(\\C)CCC=C(C)C)c(O)c1 [CBG, cannabigerol]",
    "ANSWER LABEL": "met"
  },
  {
    "COMPOUND": "C=C(C)[C@@H]1CCC(C)=C[C@H]1c1c(O)cc(CCCCC)c(C(=O)O)c1O [CBDA, cannabidiolic acid]",
    "ANSWER LABEL": "met"
  },
  {
    "COMPOUND": "CCCCCc1cc2c(c(O)c1C(=O)O)[C@@H]1C=C(C)CC[C@H]1C(C)(C)O2 [D9 THCA, delta-9-tetrahydrocannabinolic acid]",
    "ANSWER LABEL": "met"
  },
  {
    "COMPOUND": "CCCCCc1cc(O)c2c(c1)OC(C)(C)[C@@H]1CCC(C)=C[C@@H]21 [D9 THC, delta-9-tetrahydrocannabinol, reference compound]",
    "ANSWER LABEL": "met"
  },
  {
    "COMPOUND": "CCCCCc1cc(O)c2c(c1)OC1(C)CCC3C1C2C3(C)C (stereo not drawn) [CBL, cannabicyclol]",
    "ANSWER LABEL": "not met"
  },
  {
    "COMPOUND": "C=C(C)[C@@H]1CCC(C)=C[C@H]1c1c(O)cc(CCC)cc1O [CBDV, cannabidivarin]",
    "ANSWER LABEL": "not met"
  },
  {
    "COMPOUND": "CCCc1cc(O)c2c(c1)OC(C)(C)[C@@H]1CCC(C)=C[C@@H]21 [THCV, delta-9-tetrahydrocannabivarin]",
    "ANSWER LABEL": "met"
  }
]

* * *

Reported Stability of Cannabinoids in AB Red values for the following compounds.
# ASSAY PROTOCOL: Stability of cannabinoid and Vitamin E components of Beverage 2 (AB Red) stored at 8° C. and 21-25° C., LCMSMS over 570 days
# TEST SETTINGS: 21-25° C., 18 days
ENDPOINT NAME: Stability of Cannabinoids in AB Red (µg/mL)

[
  {
    "COMPOUND": "CCCCCc1cc(O)c(C/C=C(\\C)CCC=C(C)C)c(O)c1",
    "RECORDED MEASUREMENT": 4.70
  },
  {
    "COMPOUND": "CCCc1cc(O)c2c(c1)OC(C)(C)[C@@H]1CCC(C)=C[C@@H]21 [THCV, delta-9-tetrahydrocannabivarin]",
    "RECORDED MEASUREMENT": 3.19
  },
  {
    "COMPOUND": "CCCCCc1cc(O)c2c(c1)OC1(C)CCC3C1C2C3(C)C (stereo not drawn)",
    "RECORDED MEASUREMENT": 0.50
  },
  {
    "COMPOUND": "CCCCCc1cc2c(c(O)c1C(=O)O)[C@@H]1C=C(C)CC[C@H]1C(C)(C)O2 [D9 THCA, delta-9-tetrahydrocannabinolic acid]",
    "RECORDED MEASUREMENT": 1.36
  },
  {
    "COMPOUND": "CCCCCc1cc(O)c2c(c1)OC(C)(CCC=C(C)C)C=C2 (stereo not drawn)",
    "RECORDED MEASUREMENT": 0.29
  },
  {
    "COMPOUND": "CCCCCc1cc(O)c2c(c1)OC(C)(C)[C@@H]1CCC(C)=C[C@@H]21 [D9 THC, delta-9-tetrahydrocannabinol, reference compound]",
    "RECORDED MEASUREMENT": 12.8
  },
  {
    "COMPOUND": "C=C(C)[C@@H]1CCC(C)=C[C@H]1c1c(O)cc(CCC)cc1O",
    "RECORDED MEASUREMENT": 0.20
  },
  {
    "COMPOUND": "C=C(C)[C@@H]1CCC(C)=C[C@H]1c1c(O)cc(CCCCC)c(C(=O)O)c1O",
    "RECORDED MEASUREMENT": 1.65
  },
  {
    "COMPOUND": "CCCCCc1cc(O)c2c(c1)OC(C)(C)c1ccc(C)cc1-2",
    "RECORDED MEASUREMENT": 2.80
  }
]

These entries and their values trace back to patent US20240415914A1.
